// data source = patent US8338431B2

Target: Human recombinant PDE4 (Genbank accession no NM—006203) (Homo sapiens)
Sequence (Q08499 1-673 isoform Q08499-2): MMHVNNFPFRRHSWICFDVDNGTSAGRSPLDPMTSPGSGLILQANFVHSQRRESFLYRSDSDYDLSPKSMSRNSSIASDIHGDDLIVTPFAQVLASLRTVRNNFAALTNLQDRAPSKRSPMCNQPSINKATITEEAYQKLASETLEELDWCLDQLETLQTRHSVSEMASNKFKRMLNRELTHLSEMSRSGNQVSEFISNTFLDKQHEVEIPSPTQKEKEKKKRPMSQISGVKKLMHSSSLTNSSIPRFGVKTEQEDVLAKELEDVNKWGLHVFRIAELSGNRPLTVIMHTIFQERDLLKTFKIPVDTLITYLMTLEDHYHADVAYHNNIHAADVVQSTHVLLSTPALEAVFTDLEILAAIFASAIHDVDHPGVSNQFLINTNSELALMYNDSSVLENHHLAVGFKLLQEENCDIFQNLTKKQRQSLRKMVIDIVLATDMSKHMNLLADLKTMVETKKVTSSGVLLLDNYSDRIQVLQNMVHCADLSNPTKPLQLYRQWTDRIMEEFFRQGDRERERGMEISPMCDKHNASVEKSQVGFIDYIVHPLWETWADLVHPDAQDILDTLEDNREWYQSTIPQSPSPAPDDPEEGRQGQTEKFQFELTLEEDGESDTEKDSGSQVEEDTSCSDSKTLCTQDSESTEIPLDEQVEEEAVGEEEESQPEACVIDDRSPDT
Experiment: PDE4 Assay (SPA, cleavage of cAMP)
Type: biochemical
Description: Human recombinant PDE4 (Genbank accession no NM_006203) was incubated for 1 hour, with the test compound at concentrations up to 10 μM, with cAMP (1×10^-5M), and with a low amount (0.021 MBq) of radioactively labelled cAMP. At the end of the incubation, the cleavage of the substrate was evaluated by the binding of the AMP product to SPA beads, which generate […] when bound to the radioactive tracer. […]
MEASURED_ENDPOINT: IC50 (nM)

[
  {
    "MOLECULE": "COC(=O)N1CCC2(CC1)Oc1c(OC)ccc(C(=O)Cc3c(Cl)cncc3Cl)c1O2 [Compound 106]",
    "TARGET_UNDER_TEST": "Human recombinant PDE4 (Genbank accession no NM—006203) (Homo sapiens)",
    "VALUE_UNIT": "nM",
    "QUANTITATIVE_READOUT": 127
  },
  {
    "MOLECULE": "COc1ccc(C(=O)Cc2c(Cl)cncc2Cl)c2c1OC1(CCN(C(C)=O)CC1)O2 [Compound 108]",
    "TARGET_UNDER_TEST": "Human recombinant PDE4 (Genbank accession no NM—006203) (Homo sapiens)",
    "VALUE_UNIT": "nM",
    "QUANTITATIVE_READOUT": 220
  },
  {
    "MOLECULE": "COc1ccc(C(=O)Cc2c(Cl)cncc2Cl)c2c1OC1(CCNCC1)O2 [Compound 105]",
    "TARGET_UNDER_TEST": "Human recombinant PDE4 (Genbank accession no NM—006203) (Homo sapiens)",
    "VALUE_UNIT": "nM",
    "QUANTITATIVE_READOUT": 310
  }
]
